- assay: Measurement of viscosity sensitivity of FMR-DAAs in PBS-glycerol
- Format: physicochemical
- conditionSet: free probe 0.1 mM in 1×PBS containing 0-80% glycerol, pH 7.4
Documented Viscosity sensitivity (χ) across a set of molecules
API doc: respond with a numeric literal and nothing else, no unit.

NC(CNC(=O)c1cc2ccc(O)cc2oc1=O)C(=O)O (stereo not shown) [HADA, reference compound] ... 0.025
N#C/C(=C\c1ccc(-c2ccc3c(c2)CCCN3CCC(=O)NCCCC[C@@H](N)C(=O)O)s1)C(=O)O ... 0.642
N#C/C(=C\c1ccc2c(c1)CCCN2CCC(=O)NCCCC[C@@H](N)C(=O)O)C(=O)O ... 0.683

Moving on to another molecule below.
Entry N#CC(=Cc1ccc(-c2ccc3c(c2)CCCN3CCC(=O)O)s1)C(=O)NCCCCC(N)C(=O)O (stereo in doubt) : reported Viscosity sensitivity (χ) = ?
0.67
